- Tested on: Human tumor cells
- Protocol summary: Soft Agar Assay (anchorage-independent growth)
- Format: cell-based
- Particulars: colony outgrowth 10-16 days, MTT stain
pIC50: −log10 of the molar value.
// pIC50 lookup, one value per entry

Compound structure string | Bound sign | pIC50
Cn1cncc1[C@H](NC(=O)OC1(C)CC1)C1=Cc2cccnc2[C@@H](N2CCN(C(=O)OC3(C)CC3)CC2)c2ccc(Cl)cc21 | > | 9.30
COCC(=O)N[C@H](C1=Cc2cccnc2[C@@H](N2CCN(C(=O)OC(C)C)CC2)c2ccc(Cl)cc21)c1cncn1C | = | 9.22
